test: in vivo; settings: male, Sprague Dawley, rat, sc
Starred links: 1 amine or outer side, 2 acyl side, 3 side chain; linkers in the order of their positions; H or OH if unused. Non-standard residues stand in square brackets, D forms with d. Residues, ends and D or L forms follow the SMILES beside them. X10 = NCCCC[C@H](NC(=S)[C@@H](Cc1c[nH]c2ccccc12)N[*:1])C(=O)[*:2]; X7 = C[C@@H](O)[C@H](NC(=S)[C@H](CCCCN)N[*:1])C(=O)[*:2]; X8 = O=C([C@H](Cc1ccccc1)NC(=S)[C@@H]1CCCN1[*:1])[*:2]; X9 = O=C([C@@H]1CCCN1C(=S)[C@H](Cc1ccccc1)N[*:1])[*:2]
VALUE KIND: level at 0.5 h (ng/mL)

Guide cases for level at 0.5 h, answers given:
Query: Look up level at 0.5 h for this molecule: C[C@@H](O)[C@@H]1NC(=S)[C@H](CCCCN)NC(=O)[C@@H](Cc2c[nH]c3ccccc23)NC(=O)[C@H](Cc2ccccc2)NC(=O)[C@@H]2CCCN2C(=O)[C@H](Cc2ccccc2)NC1=O [13b] (cyclo(FPF[dW][X7]))
Response: 72

Query: Look up level at 0.5 h for this molecule: C[C@@H](O)[C@@H]1NC(=O)[C@H](CCCCN)NC(=O)[C@@H](Cc2c[nH]c3ccccc23)NC(=O)[C@H](Cc2ccccc2)NC(=O)[C@@H]2CCCN2C(=S)[C@H](Cc2ccccc2)NC1=O [13d] (cyclo(F[dW]KT[X9]))
Response: 92

Query: Look up level at 0.5 h for this molecule: C[C@@H](O)[C@@H]1NC(=O)[C@H](CCCCN)NC(=O)[C@@H](Cc2c[nH]c3ccccc23)NC(=O)[C@H](Cc2ccccc2)NC(=O)[C@@H]2CCCN2C(=O)[C@H](Cc2ccccc2)NC1=O [compound 13, cyclo(-D-Trp^1-Lys-Thr-Phe-Pro-Phe^6-)] (cyclo(PF[dW]KTF))
Response: 195

A = C[C@@H](O)[C@@H]1NC(=O)[C@H](CCCCN)NC(=O)[C@@H](Cc2c[nH]c3ccccc23)NC(=O)[C@H](Cc2ccccc2)NC(=S)[C@@H]2CCCN2C(=O)[C@H](Cc2ccccc2)NC1=O [13e] (cyclo(F[X8][dW]KT))
B = C[C@@H](O)[C@@H]1NC(=O)[C@H](CCCCN)NC(=S)[C@@H](Cc2c[nH]c3ccccc23)NC(=O)[C@H](Cc2ccccc2)NC(=O)[C@@H]2CCCN2C(=O)[C@H](Cc2ccccc2)NC1=O [13a] (cyclo(FPF[X10]T))
Query: Returns: the label, A or B , whose recorded level at 0.5 h is the lower number. Answer format: the label of the selected item.
Response: A
